Data credit: patent US9624182B2

- TARGET OF ASSAY: human LPA1 (Homo sapiens, UniProt Q92633)
- Construct: the full-length cDNA for human LPA1 was obtained by PCR of the reverse transcription reaction
- Sequence (Q92633 whole entry): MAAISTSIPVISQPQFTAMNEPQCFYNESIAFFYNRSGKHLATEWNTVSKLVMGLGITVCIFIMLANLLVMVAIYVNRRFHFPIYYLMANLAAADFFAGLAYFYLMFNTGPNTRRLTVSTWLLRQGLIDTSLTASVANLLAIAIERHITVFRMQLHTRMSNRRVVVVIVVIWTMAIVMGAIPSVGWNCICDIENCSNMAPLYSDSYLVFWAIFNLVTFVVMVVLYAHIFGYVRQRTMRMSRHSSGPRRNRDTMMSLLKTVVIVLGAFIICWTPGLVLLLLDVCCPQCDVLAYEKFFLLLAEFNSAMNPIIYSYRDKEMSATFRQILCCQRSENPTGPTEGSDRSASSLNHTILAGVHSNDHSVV
- EXPERIMENT NOTES: LPA1 calcium flux assay
- RECORDED CONDITIONS: CHO cells expressing human LPA1, stimulated with 10 nM LPA; read-out: HLPA1 Ca Flux IC50
pIC50: −log10 of the molar value.
METRIC NAME: pIC50

Respectfully, I request pIC50 for each entry included below.
1. Cc1noc(-c2ccc(-c3ccc(C4(C(=O)O)CC4)cc3)cc2)c1CS(=O)(=O)CCc1ccccc1
2. Cc1noc(-c2ccc(-c3ccc(C4(C(=O)O)CC4)cc3)cc2)c1/C=C/[S+]([O-])Cc1ccccc1 (single isomer, unassigned) [Compound 1-262]
3. Cc1noc(-c2ccc(-c3ccc(C4(CC(=O)O)CC4)cc3)cc2)c1NC(C)c1cc2ccccc2s1 (stereo not shown)
4. Cc1noc(-c2ccc(-c3ccc(C4(C(=O)O)CC4)cc3)cc2)c1NC(C)CCCO (stereo not shown)
5. Cc1noc(-c2ccc(-c3cccc(C(=O)O)c3)cc2)c1CNC(=O)OCc1ccccc1

> 6.52
> 6.52
> 6.52
4.30 to 6.00
4.30 to 6.00

Respectfully, I request pIC50 for each entry included below.
1. Cc1noc(-c2ccc(-c3ccc(C4(C(=O)O)CC4)cc3)cc2)c1CS(=O)(=O)Cc1ccccc1
2. Cc1noc(-c2ccc(-c3ccc(C4(C(=O)O)CC4)cc3)cc2)c1COC(=O)N[C@H](C)c1ccccc1

1. 4.30 to 6.00
2. > 6.52

###

Task for the reader: assign each of the following compounds its reported IC50.
- TARGET OF ASSAY: human LPA1 (Homo sapiens, UniProt Q92633)
- Construct: the full-length cDNA for human LPA1 was obtained by PCR of the reverse transcription reaction
- EXPERIMENT NOTES: LPA1 calcium flux assay
- RECORDED CONDITIONS: CHO cells expressing human LPA1, stimulated with 10 nM LPA; read-out: HLPA1 Ca Flux IC50
- Description: A 1.1 kb cDNA encoding the human LPA1 receptor was cloned from human lung. […] Human LPA1 or LPA3 expressing CHO cells are seeded at 20,000-45,000 cells per well in a 96-well poly-D-lysine coated plate one or two days before the assay. […] Cells are the stimulated by the addition of 10 nM LPA and intracellular Ca^2+ measured using the Flexstation 3 (Molecular Devices). IC50s are determined using Graphpad prism analysis of drug titration curves.

| COMPOUND | IC50 |
| --- | --- |
| Cc1noc(-c2ccc(-c3ccc(C4(C(=O)O)CC4)cc3)cc2)c1CNCC1CC1 | 1000 to 50000 nM |

Respectfully, I request IC50 for each entry included below.
1. Cc1onc(-c2ccc(-c3ccc(C4(CC(=O)O)CC4)cc3)cc2)c1CSCCc1ccccc1
2. Cc1noc(-c2ccc(-c3ccc(C4(C(=O)O)CC4)cc3)cc2)c1CN(CC(C)c1ccccc1)C(=O)c1ccccc1 (stereo not drawn)

["< 300 nM", "1000 to 50000 nM"]

###

- TARGET OF ASSAY: human LPA1 (Homo sapiens)
- Construct: the full-length cDNA for human LPA1 was obtained by PCR of the reverse transcription reaction
- EXPERIMENT NOTES: LPA1 calcium flux assay
- RECORDED CONDITIONS: CHO cells expressing human LPA1, stimulated with 10 nM LPA; read-out: HLPA1 Ca Flux IC50
METRIC NAME: IC50

Known results for compounds:
| COMPOUND | METRIC NAME | MEASURED RESULT |
| --- | --- | --- |
| Cc1noc(-c2ccc(-c3ccc(C4(C(=O)O)CC4)cc3)cc2)c1C(O)CN[C@H]1CCc2ccccc21 (stereo partly shown) | IC50 | < 300 nM |
| Cc1noc(-c2ccc(-c3ccc([C@H]4C[C@H]4C(=O)O)cc3)cc2)c1CSCCc1ccccc1 (single isomer, unassigned) [Compound 1-150] | IC50 | 1000 to 50000 nM |
| Cc1noc(-c2ccc(-c3ccc(C4(CC(=O)O)CC4)cc3)cc2)c1NC(C)c1ccc2ccccc2c1 (stereo not shown) | IC50 | < 300 nM |
| Cc1noc(-c2ccc(-c3ccc(C4(C(=O)O)CC4)cc3)cc2)c1CNCc1ccccc1 | IC50 | 1000 to 50000 nM |

Respectfully, I request IC50 for each entry included below.
1. Cc1noc(-c2ccc(-c3ccc(C4(C(=O)O)CC4)cc3)cc2)c1CCC(=O)NCC1CC1
2. Cc1noc(-c2ccc(-c3ccc(C4(CC(=O)O)CC4)cc3)cc2)c1C(O)CCCc1ccccc1 (single isomer, unassigned) [Compound 1-177]
3. Cc1noc(-c2ccc(-c3ccc(C4(C(=O)O)CC4)cc3)cc2)c1CNC(=O)Cc1ccccc1

1. 1000 to 50000 nM
2. < 300 nM
3. < 300 nM

Respectfully, I request IC50 for each entry included below.
1. Cc1noc(-c2ccc(-c3ccccc3C3(C(=O)O)CC3)cc2)c1C(O)CCCc1ccccc1 (stereo not shown)
2. Cc1noc(-c2ccc(-c3ccc([C@H]4C[C@H]4C(=O)O)cc3)cc2)c1CSCCc1ccccc1 (relative stereo) [Compound 1-131]
3. COc1cccc(SCC(O)c2c(C)noc2-c2ccc(-c3ccc(C4(C(=O)NS(C)(=O)=O)CC4)cc3)cc2)c1 (stereo not shown)
4. Cc1noc(-c2ccc(-c3ccc(C4(C(=O)O)CC4)cc3)cc2)c1C(CO)NCc1ccccc1 (stereo not shown)
5. Cc1noc(-c2ccc(-c3ccc(C4(C(=O)O)CC4)cc3)cc2)c1CNS(=O)(=O)Cc1ccccc1Cl

["1000 to 50000 nM", "< 300 nM", "300 to 1000 nM", "< 300 nM", "1000 to 50000 nM"]

In plain terms, Cc1noc(-c2ccc(-c3ccc([C@@H]4C[C@H]4C(=O)O)cc3)cc2)c1CSCCc1ccccc1 (relative stereo) has a documented IC50 of 300 to 1000 nM

###

- TARGET OF ASSAY: human LPA1 (Homo sapiens, UniProt Q92633)
- Construct: the full-length cDNA for human LPA1 was obtained by PCR of the reverse transcription reaction
- EXPERIMENT NOTES: LPA1 calcium flux assay
- RECORDED CONDITIONS: CHO cells expressing human LPA1, stimulated with 10 nM LPA; read-out: HLPA1 Ca Flux IC50
METRIC NAME: IC50

| COMPOUND | TARGET OF ASSAY | IC50 |
| --- | --- | --- |
| C=CCCC(C)Nc1c(C)noc1-c1ccc(-c2ccc(C3(CC(=O)O)CC3)cc2)cc1 (centres unmarked) | human LPA1 (Homo sapiens, UniProt Q92633) | 300 to 1000 nM |
| Cc1noc(-c2ccc(-c3ccc(C4(C(=O)O)CC4)cc3)cc2)c1C(O)/C=C/c1ccccc1 (centres unmarked) | human LPA1 (Homo sapiens, UniProt Q92633) | < 300 nM |
| Cc1noc(-c2ccc(-c3cccc(C(=O)O)c3)cc2)c1NC(=O)CCc1ccccc1 | human LPA1 (Homo sapiens, UniProt Q92633) | 1000 to 50000 nM |

Respectfully, I request IC50 for each entry included below.
1. Cc1noc(-c2ccc(-c3ccc(C4(C(=O)O)CC4)cc3)cc2)c1CCN(Cc1ccccc1)S(C)(=O)=O
2. Cc1noc(-c2ccc(-c3ccc(C4(C(=O)O)CC4)cc3)cc2)c1NC(C)CCc1ccccc1 (single isomer, unassigned) [Compound 1-221]
3. Cc1noc(-c2ccc(-c3ccc(CC(=O)O)cc3)cc2)c1C(O)CSCc1cccc(C(F)(F)F)c1 (centres unmarked)

["1000 to 50000 nM", "< 300 nM", "< 300 nM"]

Respectfully, I request IC50 for each entry included below.
1. Cc1noc(-c2ccc(-c3ccc(C4(C(=O)O)CC4)cc3)cc2)c1C(O)COCc1ccccc1 (single isomer, unassigned) [Compound 1-199]
2. Cc1noc(-c2ccc(-c3ccc(CCC(=O)O)cc3)cc2)c1NC(C)CCc1cccc(C(F)(F)F)c1 (single isomer, unassigned) [Compound 1-234]
3. CCC(C(=O)O)c1ccc(-c2ccc(-c3onc(C)c3CSCCc3ccccc3)cc2)cc1 (centres unmarked)
4. Cc1noc(-c2ccc(-c3ccc(C4(C(=O)O)CC4)cc3)cc2)c1Nc1cccc(OC(C)C)[n+]1[O-]

["< 300 nM", "> 50000 nM", "< 300 nM", "1000 to 50000 nM"]

Respectfully, I request IC50 for each entry included below.
1. Cc1noc(-c2ccc(-c3ccc(C4(C(=O)O)CC4)cc3)cc2)c1N(C)C(C)CCc1ccccc1 (centres unmarked)
2. CCCOc1cccc(Nc2c(C)noc2-c2ccc(-c3ccc(C4(C(=O)O)CC4)cc3)cc2)n1
3. Cc1noc(-c2ccc(-c3ccc(C4(C(=O)O)CC4)cc3)cc2)c1Nc1cccc(C(N)=O)n1
4. Cc1noc(-c2ccc(-c3ccc(C4(C(=O)O)CC4)cc3)cc2)c1CSCc1ccccc1
5. Cc1noc(-c2ccc(-c3ccc(CCC(=O)O)cc3)cc2)c1CSCCc1ccccc1
6. Cc1noc(-c2ccc(-c3ccc(C4(C(=O)O)CC4)cc3)cc2)c1NC(C)C(O)Cc1ccccc1 (single isomer, unassigned) [Compound 1-282]
7. Cc1noc(-c2ccc(-c3ccc(C4(C(=O)O)CC4)cc3)cc2)c1NC(=O)N[C@H](C)c1ccccc1

1: < 300 nM; 2: < 300 nM; 3: < 300 nM; 4: 1000 to 50000 nM; 5: < 300 nM; 6: < 300 nM; 7: < 300 nM
